- experiment_summary: logP (octanol/water) at 25° C.
- Format: physicochemical
assay_metric: logP

{"columns": ["molecule", "logP"],
 "data": [
  ["CCOC(=O)CNC(=O)C1CC(C)CCC1C(C)C (stereo not drawn)", 3.38],
  ["C/C=C/C=C\\CC/C=C/C(=O)NCC(C)C [spilanthol, N-isobutyl-2E,6Z,8E-decatrienamide]", 3.4],
  ["CCNC(=O)C1CC(C)CCC1C(C)C (stereo not drawn) [N-ethyl-p-menthane-3-carboxamide (WS-3), N-ethyl-p-menthane-3-carboxamide]", 3.81],
  ["CC1CCC(C(C)C)C(O)C1 (stereo not drawn) [menthol, reference compound]", 3.4]
]}

[a] CNC(=O)C(C)(C(C)C)C(C)C [N,2,3-trimethyl-2-propan-2-ylbutanamide]
[b] CCNC(=O)C(CC)(C(C)C)C(C)C [N-ethyl-2,2-diisopropylbutanamide]
Would you let me know which has the greater logP value, a or b ? The response must carry the label of the picked entry.
b
